tested on: basophils (CD63 expression) in human whole blood; assay: 384-well HTBS Whole Blood CD63 Basophil Assay; assay type: cell-based; details: human whole blood (25% blood); comparison table
pIC50: −log10 of the molar value.
assay metric: pIC50

Illustrative cases are given below, each with its answer.
compound="Cc1ncc(-c2cn3ccnc3c(Nc3ccc(N4CCOCC4)cc3)n2)cc1N [reference compound]" measurement=6.60
compound="Nc1cncc(-c2cn3ccnc3c(Nc3ccc(N4CCN(CC(CO)CO)CC4)cc3)n2)n1 [Ex.-6]" measurement=6.89
compound="Nc1cncc(-c2cn3ccnc3c(Nc3ccc(N4CCN(C5COC5)CC4)c(OCCO)c3)n2)n1 [Ex.-5]" measurement=6.92

[a] Nc1cncc(-c2cn3ccnc3c(Nc3ccc(N4CCO[C@@H](CO)C4)cc3)n2)n1 [Ex.-3]
[b] COc1ccc(Nc2nc(-c3cccc(N)c3)cn3ccnc23)cc1OC [reference compound]
[c] Cc1c(-c2cncc(N)n2)nc(Nc2ccc(N3CCN(C4COC4)CC3)cc2)c2nccn12 [Ex.-4]
Lookup: Provide the items ranked by increasing pIC50. Return value: ordered labels per request.
Found: b, c, a

* * *

system: hepatocytes; assay type: in vitro ADME; details: human
assay metric: Hheps CL (L/h/kg)

molecule=Nc1cncc(-c2cn3ccnc3c(Nc3ccc(N4CCO[C@@H](CO)C4)cc3)n2)n1 system_name=hepatocytes endpoint_unit=L/h/kg measurement=0.09

[I] Cc1ncc(-c2cn3ccnc3c(Nc3ccc(N4CCOCC4)cc3)n2)cc1N [reference compound]
[II] Nc1cncc(-c2cn3ccnc3c(Nc3ccc(N4CCN(C5COC5)CC4)c(OCCO)c3)n2)n1
Lookup: Hi, I'm comparing I with II and wondering which one has the bigger number for Hheps CL. Any idea? Kindly state the label of the option you pick.
Found: I

* * *

system: hepatocytes; assay type: in vitro ADME; details: human
assay metric: Hheps CL (mL/min/kg)

Below, each entry is followed by its recorded Hheps CL result.
compound="COc1ccc(Nc2nc(-c3cccc(N)c3)cn3ccnc23)cc1OC [reference compound]" assay_metric="Hheps CL" endpoint_unit=mL/min/kg measurement=4
compound=Cc1c(-c2cncc(N)n2)nc(Nc2ccc(N3CCN(C4COC4)CC3)cc2)c2nccn12 assay_metric="Hheps CL" endpoint_unit=mL/min/kg measurement=1.33
compound=Cc1ncc(-c2cn3ccnc3c(Nc3ccc(N4CCN(C5COC5)CC4)c(OCCO)c3)n2)nc1N assay_metric="Hheps CL" endpoint_unit=mL/min/kg measurement=0.833
compound="COc1ccc(Nc2nc(-c3ccc(N)nc3)cn3ccnc23)cc1OC [reference compound]" assay_metric="Hheps CL" endpoint_unit=mL/min/kg measurement=15
compound=Nc1cncc(-c2cn3ccnc3c(Nc3ccc(N4CCN(CC(CO)CO)CC4)cc3)n2)n1 assay_metric="Hheps CL" endpoint_unit=mL/min/kg measurement=1.33

[1] Nc1cncc(-c2cn3ccnc3c(Nc3ccc(N4CCOCC4)cc3)n2)c1 [reference compound]
[2] Nc1cncc(-c2cn3ccnc3c(Nc3ccc(N4CCN(C5COC5)CC4)cc3)n2)n1
Lookup: Lab note: check whether 1 or 2 shows the higher recorded Hheps CL. Output the label that corresponds to your choice.
Found: 1
